Task for the reader: assign each of the following sequences its reported PBM binding z-score.
System: LXRa homodimer (NR concentration 270 nM)
experimental protocol: PBM binding z-score (relative to random genomic background probes); higher = stronger binding; sequences stand for … in GC…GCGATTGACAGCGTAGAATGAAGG
Please reply with the number alone, leaving off any unit.

// PBM binding z-score value for `CCAGACAGGTGAGAAGGTAAATCAGCCTCGATTA` : -0.129

// PBM binding z-score value for `GCGACAGGGGCATCAGCAGGTTACCATAACTTAA` : -0.329

// PBM binding z-score value for `AGAATGAGGTTACCAAAGATCAGAGAAACGCTTG` : 0.173

// PBM binding z-score value for `CCAGACAGCTGAAAGGTAACTCAGTCTGGTACGC` : -0.368

// PBM binding z-score value for `CCTACTGGGCTAAAGGTCATTGATTCCAATGCTC` : 4.14

// PBM binding z-score value for `CCTATTAGTTGACCATAAGGGCCACCGAAGCTCG` : 0.365

// PBM binding z-score value for `CCTACTGGGCCATCAGGTCATTGCTATCAACGTT` : 1.36

// PBM binding z-score value for `CGTCAAAGTTCAAGGTAACGGAACAGAAAGCAGC` : 2.26

// PBM binding z-score value for `AGCACGAGGGCAATGAGTTGATAGCACGGGTGGC` : -0.673

// PBM binding z-score value for `GCGACTGGGGCATCAGTAGGTTACCATAACTTAA` : -0.273

// PBM binding z-score value for `CGTCCAAGGCCAAAGGTCAGTGAAGAGATGACGG` : 0.794

// PBM binding z-score value for `AGTCAAAGTTCACTAAGTAACGTAAGATTCAGCT` : 3.18

// PBM binding z-score value for `TCATATCGGTAAAAGGTGAAAGTCGGTGTGGTAA` : 0.323

// PBM binding z-score value for `TCTTGTAGATCAAAGGATAAGAAAGCCGAAGCCT` : -0.116

// PBM binding z-score value for `CTCGAAAGGTCGTTCTCAGGTGAGTATACCAAAC` : 1.08

// PBM binding z-score value for `CCACACAGGTGAAAGGTAACTCAGTCTGGTACGC` : 0.186

// PBM binding z-score value for `CCTACTGGGCCAAAGGTCATTGGTTCCAATGCTC` : 4.28

// PBM binding z-score value for `GGAACGAGGGCAAGTCGATAGCAGAGTTTGATGG` : -0.566

// PBM binding z-score value for `TGAATGAGGTTTTAAGATCAGGGAACGTTGCAAA` : -0.631

// PBM binding z-score value for `CAAACTAGGTCACGAAAGATCAAAGTCGAATGAC` : 0.705

// PBM binding z-score value for `AGAACGAGGGCAATAAGTTGATAGCACGGGTGGC` : -0.278

// PBM binding z-score value for `GATACAGGGTCAGCTAGAGGCCCGAGTATGGAAA` : -0.511

// PBM binding z-score value for `TTACCAAGGTGAGCTGAGATCGTTGATCCAACTC` : -0.907

// PBM binding z-score value for `TAGCCTAGGTCATGGGCCAGTAGACCACGCGAAC` : 0.0345

// PBM binding z-score value for `AGAATGAGGTAATACGTAGATCAGGGAAGAAAGT` : -0.0872

// PBM binding z-score value for `GATAGAGGGTCAGCTAGAGGCCAGAGTATGGAAA` : -0.113

// PBM binding z-score value for `TCATATAGTTAAAAGGTGAAAGTCGGTGTGGTAA` : 0.272

// PBM binding z-score value for `TCTAGTTGGGCACGGAGGTCACACACGACGGGTA` : 1.6

// PBM binding z-score value for `CCAGACAGGTGAGAAGGTAACTCACCCTCGATTA` : -0.0683

// PBM binding z-score value for `TCTATTAGTTGAAGTGCAACCGACGAGTCCGTTT` : 0.178

// PBM binding z-score value for `CAAACTAGGTCACGAAAGTTCAAAGTCGAATGAC` : 8.43

// PBM binding z-score value for `CGTCCAAGTTCAGAGAGGTCAGTGAATGCCGAGT` : 3.27

// PBM binding z-score value for `TCGACTAGGTTACCAATGGGGCATTCAGCTTTCT` : -0.443

// PBM binding z-score value for `CTCGAAAGGTCGGTTGAGGTGATTATACGGATAA` : -0.0507

// PBM binding z-score value for `CCCACTGGGCCAAGGTCATTGATCAGTCAAAGCA` : 1.44

// PBM binding z-score value for `AGAACGAGGGCAGGCTGAGTTGATAGCAGAGTAG` : -0.661

// PBM binding z-score value for `CAAACTAGGTCACGATAGGTCAAAGTCGAATGAC` : 5.31

// PBM binding z-score value for `TAGCCTAGGACATGGGCCAGTATACCACGCGAAC` : -0.616

// PBM binding z-score value for `TCTTGTAGATCAACAGGAGGTTCAGAAAGATCGA` : -0.476

// PBM binding z-score value for `TCTTGTAGATCAAGCAGGTTAAGAAAGCCTGAGT` : -0.381

// PBM binding z-score value for `AGTCAAAGTTCAGGACGAGGTAACGTAAAGCACG` : 0.999

// PBM binding z-score value for `CAAACTAGGCCACCGGAAGGTCAAAGTCCGCATG` : 3.39

// PBM binding z-score value for `TCTAGCAGGCCCGAGGGTCACTCAAGAGGTACGG` : -0.649

// PBM binding z-score value for `CGAACGAGGGCATGAGTTGACAGCAAATGCCGAT` : -0.133

// PBM binding z-score value for `CGAACTAGGTCAGAACGGGACAGTGAAGGATGAT` : -0.316

// PBM binding z-score value for `ACAGACAGGTGATGAAGGTAACTCATGCTATCAT` : 0.081

// PBM binding z-score value for `TCTTGTAGATCAAGCCGGTTAAGAAAGCCTGAGT` : -0.282

// PBM binding z-score value for `TAGCCTAGGTCATGCGGGCCAGTATCGTGTCGGC` : 0.667

// PBM binding z-score value for `ATATGTAGGTTATAGGGTCATTCAGTTTGCGCAT` : 2.22

// PBM binding z-score value for `CGAACTAGGTCATGGACAGGACAGTGAATAGTAA` : -0.0954

// PBM binding z-score value for `GCTAGTTGGTCAGTAAAAGCTCACACACCGGTCG` : -0.0683

* * *

Test system: PPARg:RXRa (NR concentration 180 nM, RXRa partner concentration 90 nM)
experimental protocol: PBM binding z-score (relative to random genomic background probes); higher = stronger binding; sequences stand for … in GC…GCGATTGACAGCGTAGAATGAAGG
Rule: PBM binding z-score under 2 gives -1, otherwise 1.

## Input Confirm if PBM binding z-score reported for the sequence `CCTTACGGGGCACTGACAGGTTATAGCATTTGGA` is 2 or above.
## Output -1

## Input Confirm if PBM binding z-score reported for the sequence `TCGAGTAGGTTAGTCTGGGCATTCAGCCAACATA` is 2 or above.
## Output -1

## Input Confirm if PBM binding z-score reported for the sequence `ACTAATAGTTGAGACGAGGGCAACCGATAGGTTG` is 2 or above.
## Output -1

## Input Confirm if PBM binding z-score reported for the sequence `AGTCAAAGTTCATCTAGGTAACGCAAGATATGCT` is 2 or above.
## Output 1

## Input Confirm if PBM binding z-score reported for the sequence `CAAACTAGGTCACAGAGGCCAAAGTCCGTGCGTA` is 2 or above.
## Output 1

## Input Confirm if PBM binding z-score reported for the sequence `CCTACTGGGCCACGACAGGTCATTGATTCAGTGA` is 2 or above.
## Output 1

## Input Confirm if PBM binding z-score reported for the sequence `CCTACTGGACCATTCAGAGGTCATTGATCATATG` is 2 or above.
## Output -1

## Input Confirm if PBM binding z-score reported for the sequence `TCATATAGGTAAACAGGTGAGAGTCCGTAAGTTA` is 2 or above.
## Output 1

## Input Confirm if PBM binding z-score reported for the sequence `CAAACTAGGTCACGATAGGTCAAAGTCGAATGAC` is 2 or above.
## Output 1

## Input Confirm if PBM binding z-score reported for the sequence `TCTTGTAGATCAAGCAGGCTAAGAAAGCCTGAGT` is 2 or above.
## Output -1

## Input Confirm if PBM binding z-score reported for the sequence `ATTCCAAGGTGATCGTGAGGTCGTTGATACTAAC` is 2 or above.
## Output -1

## Input Confirm if PBM binding z-score reported for the sequence `TTACCAAGGGGAGCTGAGGTCGTTGATCCAACTC` is 2 or above.
## Output -1
